# target-or-test-system: Nuclear receptor subfamily 1 group I member 3 (Homo sapiens)
# test-name: qHTS assay to identify small molecule antagonists of the constitutive androstane receptor (CAR) signaling pathway (AID 1224838);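 note: HepG2 cells stably expressing hCAR with CYP2B6 luciferase reporter stimulated by CITCO; % is set by controls: 0 for no effect and ±100 for the full control effect; nearly all actives have a fitted effect of over 40% in size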
# applied-conditions: HepG2-CYP2B6-hCAR luciferase, CITCO-stimulated, 24 h; series mostly up to 92.4 µM
# Excerpt: U.S. Tox21 Program National Center for Advancing Translational Sciences [NCATS] NIH Chemical Genomics Center [NCGC] U.S. Environmental Protection Agency [EPA] National Institutes of Environmental Health Sciences [NIEHS] National Toxicology Program [NTP] U.S. Food and Drug Administration [FDA] […] Tox21 Assay Protocol Summary: A double-stable (hCAR and CYP2B6-2.2kb) transfected cell line, derived from human hepatoma (HepG2) cells, was utilized for the duration of the quantitative high-throughput screens. […]
Inconclusive results are not listed. Calls of active or inactive are those of the source. Calls come from the whole dose curve; as a rule, active = well fitted inhibition curve with a large enough effect in the repeat runs; inconclusive = weak or mixed curves, or effect the other way; inactive = no such curve, though single readings can be large or run the other way.
endpoint-label: activity, negative = inhibition

In the examples that follow, each entry is paired with its recorded activity, negative = inhibition.
                    sample_smiles                     target_or_test_system         recorded_measurement
0  CCCCCCCC/C=C\CCCCCCCC(=O)OCCCC  Nuclear receptor subfamily 1 group I member 3 (Homo sapiens)  20.6% [at 19 µM] (inactive)
1                 CCCCCCCCC(=O)Cl  Nuclear receptor subfamily 1 group I member 3 (Homo sapiens)                     inactive
2                 CCCOC(OCCC)OCCC  Nuclear receptor subfamily 1 group I member 3 (Homo sapiens)                     inactive
3  Cc1cc2cc3c(C)cc(=O)oc3c(C)c2o1  Nuclear receptor subfamily 1 group I member 3 (Homo sapiens)                     inactive

Each molecule below has a reported value. Please supply its activity, negative = inhibition.
1. CC(=O)N[C@@H](CCC(=O)O)C(=O)O
2. O=C(OCC(COC(=O)c1cccnc1)(COC(=O)c1cccnc1)COC(=O)c1cccnc1)c1cccnc1
3. O=S(=O)(O)c1cc(O)c2ccc(Nc3ccccc3)cc2c1
4. c1ccc2nccnc2c1
5. On1nnc2ccccc21
6. CCOC(=O)[C@H](CCc1ccccc1)N[C@@H](C)C(=O)N1C(=O)N(C)C[C@H]1C(=O)O
7. COc1ccc(OC)c(Cl)c1

Response:
inactive
inactive
inactive
inactive
inactive
inactive
inactive

====

# test-name: qHTS assay to identify small molecule antagonists of the estrogen related receptor (ERR) signaling pathway from Tox21 library (AID 1224848); note: % is set by controls: 0 for no effect and ±100 for the full control effect; nearly all actives have a fitted effect of over 50% in size
# applied-conditions: ERR reporter cell line, luciferase antagonist mode, 18 h; series mostly up to 92.4 µM
# Description: U.S. Tox21 Program National Center for Advancing Translational Sciences [NCATS] NIH Chemical Genomics Center [NCGC] U.S. Environmental Protection Agency [EPA] National Institutes of Environmental Health Sciences [NIEHS] National Toxicology Program [NTP] U.S. Food and Drug Administration [FDA] Tox21 Assay Overview: Estrogen related receptors (ERRs), the first orphan nuclear receptors discovered, play an important role in the control of cellular energy metabolism. […]
Inconclusive results are not listed. Activity calls are given as the source filed them. Calls follow the shape of the dose curve; as a rule, active = well fitted inhibition curve with a large enough effect in the repeat runs; inconclusive = weak or mixed curves; inactive = no such curve, though single readings can be large or run the other way.
endpoint-label: activity, negative = inhibition

In the examples that follow, each entry is paired with its recorded activity, negative = inhibition.
>>> df
                                   molecule                   endpoint_label            recorded_measurement
0  OCCC(F)(F)C(F)(F)C(F)(F)C(F)(F)C(F)(F)C(F)(F)C(F)(F)C(F)(F)F  activity, negative = inhibition                        inactive
1                               O=S(O)(O)=S  activity, negative = inhibition   8.94% [at 8.39 µM] (inactive)
2  COC(=O)[C@@H]1[C@H]2C[C@H]3c4[nH]c5ccccc5c4CCN3C[C@@H]2CC[C@@H]1O  activity, negative = inhibition                        inactive
3  CN1CCN(CC(=O)N2c3ccccc3C(=O)Nc3cccnc32)CC1  activity, negative = inhibition  0.334% [at 8.39 µM] (inactive)
4                           CCc1ccc(C=O)cc1  activity, negative = inhibition                        inactive

Each molecule below has a reported value. Please supply its activity, negative = inhibition.
1. CCO[Si](CCCS)(OCC)OCC
2. COc1cc(NS(=O)(=O)c2ccc(N)cc2)nc(OC)n1
3. CCN(CC)CC(=O)Nc1c(C)cccc1C
4. CCCOC(OCCC)OCCC
5. CCCCCCCC/C=C\CCCCCCCC(=O)OCCCC
6. CCCCNC1CC(C)(C)NC(C)(C)C1

Response:
inactive
inactive
inactive
inactive
0.129% [at 19 µM] (inactive)
inactive
